Listing of entries alongside the reported IC50.
- target-under-test: PSG G322A (PSD-95)
- test-details: FP displacement (competition) of FITC-15 AA CRIPT by library peptide, IC50 and Ki
- measurement-setup: read-out: IC50 (µM), PSG G322A; FP displacement of FITC-15 AA CRIPT probe by acetylated PSD library peptide

smiles-structure	target-under-test	IC50
CC(=O)N[C@@H](Cc1ccc(O)cc1)C(=O)N[C@@H](CC(C)C)C(=O)N[C@@H](Cc1c[nH]cn1)C(=O)NCC(=O)N[C@@H](Cc1c[nH]cn1)C(=O)N[C@@H](CCCNC(=N)N)C(=O)N[C@@H](Cc1ccc(O)cc1)C(=O)N[C@@H](CO)C(=O)N[C@@H](CO)C(=O)NCC(=O)N[C@@H](CO)C(=O)N[C@@H](CCCNC(=N)N)C(=O)N[C@@H](CO)C(=O)N[C@@H](CC(C)C)C(=O)N[C@H](C(=O)O)C(C)C	PSG G322A (PSD-95)	660 µM
CC[C@H](C)[C@H](NC(=O)[C@@H]1CCCN1C(=O)[C@H](Cc1ccc(O)cc1)NC(C)=O)C(=O)NCC(=O)NCC(=O)N[C@@H](CO)C(=O)N[C@@H](CC(C)C)C(=O)N[C@@H](CC(N)=O)C(=O)N[C@@H](CO)C(=O)N[C@H](C(=O)N[C@H](C(=O)N[C@@H](CC(=O)O)C(=O)N[C@@H](CO)C(=O)N[C@@H](C)C(=O)N[C@@H](CC(C)C)C(=O)O)[C@@H](C)O)[C@@H](C)O	PSG G322A (PSD-95)	133 µM
CC[C@H](C)[C@H](NC(=O)[C@H](Cc1ccccc1)NC(=O)[C@H](CO)NC(=O)[C@H](CCCNC(=N)N)NC(=O)[C@H](CCCCN)NC(=O)[C@@H]1CCCN1C(=O)[C@H](CCCCN)NC(=O)[C@H](C)NC(=O)[C@H](C)NC(=O)[C@@H](NC(=O)[C@H](Cc1ccc(O)cc1)NC(C)=O)[C@@H](C)O)C(=O)N[C@@H](CCC(=O)O)C(=O)N[C@@H](CO)C(=O)N[C@@H](CC(N)=O)C(=O)N[C@H](C(=O)O)C(C)C	PSG G322A (PSD-95)	21 µM

The measurements presented in this section are drawn from paper PMC9490041.
